- assay: Solubility limit assay
- Type: physicochemical
- condition-description: DMEM-F12 without phenol red with 10% FBS, pH 7.4, plasma or biological fluid, kinetic from dmso stock, pH 7.4, DMEM-F12 with 10% FBS, 1% DMSO, upper limit 200 µM; read-out: Solubility Limit
Please go through the items and note down their solubility.

The recorded solubility for entry CC(=NCc1ccc(F)c(F)c1)c1c(C)cc(=O)n(O)c1O equals > 200 µM

The recorded solubility for entry CC(=Nc1ccccc1Cl)c1c(C)cc(=O)n(O)c1O equals > 200 µM

The recorded solubility for entry CC(=NCc1ccccc1Cl)c1c(C)cc(=O)n(O)c1O equals 167 µM

====

- Test system: HBV replication in HepDES19 cells
- assay: qPCR HBV replication inhibition assay
- Assay type: cell-based, HBV genotype D
- condition-description: Hepatitis B virus, HepDES19, 72 h, pH 7.4, HepDES19 cells, 72 h, (+) polarity DNA strand, pH 7.4; read-out: EC50
Please go through the items and note down their pEC50.
Schema: pEC50 number; meaning minus log10 of the concentration expressed in molar units.

The recorded pEC50 for entry CC(=NCc1cccc(F)c1)c1c(C)cc(=O)n(O)c1O equals 4.56

The recorded pEC50 for entry CC(=Nc1ccc(F)c(F)c1)c1c(C)cc(=O)n(O)c1O equals 6.05

The recorded pEC50 for entry CC(=NCc1cccc(Cl)c1)c1c(C)cc(=O)n(O)c1O equals 5.33

The recorded pEC50 for entry CC(=NCc1cccc(Br)c1)c1c(C)cc(=O)n(O)c1O equals 4.87

The recorded pEC50 for entry CC(=Nc1ccccc1Cl)c1c(C)cc(=O)n(O)c1O equals 5.62

The recorded pEC50 for entry CC(=NCc1ccc(F)cc1)c1c(C)cc(=O)n(O)c1O equals 4.78

The recorded pEC50 for entry CC(=Nc1c(F)cccc1F)c1c(C)cc(=O)n(O)c1O equals 5.56

The recorded pEC50 for entry CC(=NCc1ccc(Cl)cc1)c1c(C)cc(=O)n(O)c1O equals 4.72

The recorded pEC50 for entry CC(=NCc1ccccc1Cl)c1c(C)cc(=O)n(O)c1O equals 5.56

The recorded pEC50 for entry CC(=NOCc1ccc(Cl)cc1Cl)c1c(C)cc(=O)n(O)c1O equals 6.30

====

- assay: Parallel artificial membrane permeability assay
- Format: in vitro ADME
- condition-description: PAMPA, pH 7.4, PAMPA, pH 7.4; read-out: Papp Interpretation
Please go through the items and note down their Papp at 2 h, 200 µM.

The recorded Papp at 2 h, 200 µM for entry CC(=NCc1cccc(Br)c1)c1c(C)cc(=O)n(O)c1O equals > 1 ×10⁻⁶ cm/s

The recorded Papp at 2 h, 200 µM for entry CC(=NCc1ccc(F)cc1)c1c(C)cc(=O)n(O)c1O equals > 1 ×10⁻⁶ cm/s

The recorded Papp at 2 h, 200 µM for entry CC(=NCc1ccc(F)c(F)c1)c1c(C)cc(=O)n(O)c1O equals > 1 ×10⁻⁶ cm/s

====

Please go through the items and note down their EC50.
- Tested on: HBV replication in HepDES19 cells
- assay: qPCR HBV replication inhibition assay
- Type: cell-based, HBV genotype D
- condition-description: Hepatitis B virus, HepDES19, 72 h, pH 7.4, HepDES19 cells, 72 h, (+) polarity DNA strand, pH 7.4; read-out: EC50
# output: bare number, implied unit nM

The recorded EC50 for entry CC(=NOCc1ccccc1I)c1c(C)cc(=O)n(O)c1O equals 1770

The recorded EC50 for entry CC(=Nc1cc(F)ccc1F)c1c(C)cc(=O)n(O)c1O equals 1970

The recorded EC50 for entry CC(=Nc1ccccc1Br)c1c(C)cc(=O)n(O)c1O equals 4530

The recorded EC50 for entry CC(=NCc1ccc(Br)cc1)c1c(C)cc(=O)n(O)c1O equals 15000

The recorded EC50 for entry CC(=Nc1ccc(F)cc1F)c1c(C)cc(=O)n(O)c1O equals 2830
